Ref: PubChem BioAssay AID1159580

experiment: chemical genetic growth profiling, strain panel (AID 1159580);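 further: tested at 20 µM; growth read once vehicle control cultures reached saturation at 30 °C; 1 = growth at the plate median or of vehicle wells; lower values mean less growth of the strain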
reported_conditions: S. cerevisiae deletion strains, growth OD, locus YEL061C, strain CIN8 (second series), hits give low values
About 2,000 (36%) of roughly 5,500 compounds were called active. Inconclusive results (about 18%) are left out. Some of the results follow.
For each record, check the reported normalized growth: if it is below 1 write Satisfied, else write Not satisfied.

1) COc1cc(C(C)=O)cc(OC)c1O :: Not satisfied
2) CC(=O)c1ccc(O)c(CC=C(C)C)c1 :: Satisfied
3) NC(Cn1ccc(=O)c(O)c1)C(=O)O (centres undefined) :: Not satisfied

// query Here's an entry: CC(C)c1ccc2c(c1)CCC1C(C)(C(N)=O)CCCC21C (centres undefined) . Is its normalized growth below 1?
// result Satisfied

----------
experiment: chemical genetic growth profiling, strain panel (AID 1159580)
reported_conditions: S. cerevisiae deletion strains, growth OD, locus YEL003W, strain gim4, hits give low values
The whole screen tested about 5,500 compounds, of which about 2,000 (36%) were called active. Not shown: some 18% with an inconclusive outcome. The list shows a part of the results.
Provide the recorded normalized growth for the entries that follow.
Give bare numbers.

The following molecules have reported results that may help.
1) CN(C)[C@@H]1C(=O)C(C(=O)NCN2CCCC2)=C(O)[C@@]2(O)C(=O)C3=C(O)c4c(O)cccc4[C@@](C)(O)[C@H]3C[C@@H]12 :: 0.732
2) CS(=O)(=O)Nc1ccc([N+](=O)[O-])cc1Oc1ccccc1 :: 0.999

Fill in normalized growth for each of the 6 molecules listed.
1. O=C1NC(O)=NC1(c1ccccc1)c1ccccc1
2. CN(C)CCCN1c2ccccc2Sc2ccc(Cl)cc21
3. CC12CCC(=O)C=C1CCC1C2[C@@H](O)CC2(C)C1CC[C@]2(O)C(=O)COP(=O)(O)O (stereo not given in full)
4. COc1ccc(C2Sc3ccccc3N(CCN(C)C)C(=O)C2OC(C)=O)cc1 (stereo not given)
5. O=P1(NCCCl)OCCCN1CCCl (stereo not given)
6. NC(Cn1ccc(=O)c(O)c1)C(=O)O (stereo not given)

// result
1
0.0681
1
0.978
0.983
1

Fill in normalized growth for each of the 2 molecules listed.
1. CN(C)CCCN1c2ccccc2CCc2ccc(Cl)cc21
2. CN(C)[C@@H]1C(=O)C(C(N)=O)=C(O)[C@@]2(O)C(=O)C3=C(O)c4c(O)ccc(Cl)c4[C@@](C)(O)[C@H]3C[C@@H]12

// result
0.984
0.973

----------
experiment: chemical genetic growth profiling, strain panel (AID 1159580)
reported_conditions: S. cerevisiae deletion strains, growth OD, locus YMR129W, hits give low values
Out of some 5,500 compounds screened, about 2,000 (36%) were called active. About 18% were inconclusive and are not listed. The list shows a part of the results.
quantity_kind: normalized growth

The following molecules have reported results that may help.
1. CC(=O)c1ccc(O)c(CC=C(C)C)c1 :: 0.969 (inactive)
2. COc1ccc([C@@H]2CC(=O)c3c(O)cc(O[C@@H]4O[C@H](CO[C@H]5O[C@@H](C)[C@H](O)[C@@H](O)[C@H]5O)[C@@H](O)[C@H](O)[C@H]4O)cc3O2)cc1O :: 0.989 (inactive)
3. CCOC(=O)NNc1nncc2ccccc12 :: 0.988 (inactive)
4. CN(C)[C@@H]1C(=O)C(C(N)=O)=C(O)[C@@]2(O)C(=O)C3=C(O)c4c(O)ccc(Cl)c4[C@@H](O)[C@H]3C[C@@H]12 :: 0.989 (inactive)
5. C=C1c2c(Cl)ccc(O)c2C(O)=C2C(=O)[C@]3(O)C(O)=C(C(N)=O)C(=O)[C@@H](N(C)C)[C@@H]3[C@@H](O)[C@H]12 :: 0.981 (inactive)
6. Nc1ccc(S(=O)(=O)NC(=O)c2ccccc2)cc1 :: 0.989 (inactive)
7. O=C(O)c1cccnc1 :: 0.97 (inactive)
8. Cc1cn[nH]c1 :: 1.01 (inactive)

Fill in normalized growth for each of the 6 molecules listed.
1. CC1=CC(=O)c2ccccc2C1=O
2. CCCN(CCC)S(=O)(=O)c1ccc(C(=O)O)cc1
3. CC(CCc1ccccc1)NCC(O)c1ccc(O)c(C(N)=O)c1 (stereo unspecified)
4. CC(=O)c1cc(CC=C(C)C)c(O)c(CC=C(C)C)c1
5. CC1=CC(=O)c2c(O)cccc2C1=O
6. O=P1(N(CCCl)CCCl)NCCCO1 (stereo unspecified)

// result
1. 1.01 (inactive)
2. 0.991 (inactive)
3. 1.01 (inactive)
4. 1.01 (inactive)
5. 0.0547 (active)
6. 0.991 (inactive)

Fill in normalized growth for each of the 5 molecules listed.
1. NC(=O)c1cccnc1
2. O=C(O)c1ccccc1
3. COc1ccc2cc(CCC(C)=O)ccc2c1
4. Nc1ccc(C(=O)O)cc1
5. CCCOc1ccc2nc(NC(=O)OC)[nH]c2c1

// result
1. 0.99 (inactive)
2. 0.988 (inactive)
3. 0.983 (inactive)
4. 1.03 (inactive)
5. 1.02 (inactive)

----------
experiment: chemical genetic growth profiling, strain panel (AID 1159580);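 further: tested at 20 µM; growth read once vehicle control cultures reached saturation at 30 °C; 1 = growth at the plate median or of vehicle wells; lower values mean less growth of the strain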
reported_conditions: S. cerevisiae deletion strains, growth OD, locus YOR070C, strain gyp1, hits give low values
Among all 5,500 compounds or so, about 2,000 (36%) were called active. About 18% were inconclusive and are not listed. This is one part of the list.
Provide the recorded normalized growth for the entries that follow.
Numbers only.

The following compounds have reported results that may help.
1) CC(=O)Oc1ccc(C(c2ccc(OC(C)=O)cc2)c2ccccn2)cc1 :: 1
2) CN(C)CCCN1c2ccccc2Sc2ccccc21 :: 0.986
3) CC(=O)Oc1ccc(O)cc1 :: 0.975
4) CN(C)CCCN1c2ccccc2CCc2ccc(Cl)cc21 :: 0.99
5) CC(=O)Oc1ccc(/C=C/c2cc(OC(C)=O)cc(OC(C)=O)c2)cc1 :: 0.959

Fill in normalized growth for each of the 7 compounds listed.
1. CC(=O)Oc1cccc(O)c1
2. CN(C)CCCN1c2ccccc2Sc2ccc(Cl)cc21
3. COc1ccc(C2Sc3ccccc3N(CCN(C)C)C(=O)C2OC(C)=O)cc1 (configuration not stated)
4. Cc1c(C)c2c(c(C)c1O)CCC(C)(CCCC(C)CCCC(C)CCCC(C)C)O2 (configuration not stated)
5. CN(C)CCCN1c2ccccc2Sc2ccc(C(F)(F)F)cc21
6. CCC(C)C(=O)OC1[C@@H]2CC3=C4CC(=O)O[C@@H](c5ccoc5)[C@]4(C)CCC3[C@@](C)(C2=O)[C@@H](CC(=O)OC)C1(C)C (some centres not stated)
7. O=C(O)C1=CCCNC1

// result
1. 1.02
2. 0.0696
3. 0.989
4. 0.988
5. 1.01
6. 1.01
7. 0.982

----------
experiment: chemical genetic growth profiling, strain panel (AID 1159580);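 further: tested at 20 µM; growth read once vehicle control cultures reached saturation at 30 °C; 1 = growth at the plate median or of vehicle wells; lower values mean less growth of the strain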
reported_conditions: S. cerevisiae deletion strains, growth OD, locus YHR129C, strain ARP1, hits give low values
The campaign covered roughly 5,500 compounds. About 2,000 (36%) were called active. Inconclusive results (about 18%) are left out. This is one part of the list.
quantity_kind: normalized growth
Give bare numbers.

The following compounds have reported results that may help.
1) C[C@H]1c2cccc(O)c2C(O)=C2C(=O)[C@]3(O)C(O)=C(C(N)=O)C(=O)[C@@H](N(C)C)[C@@H]3[C@@H](O)[C@@H]21 :: 0.994
2) CCC(C)[C@H]1O[C@]2(C=C[C@@H]1C)C[C@@H]1C[C@@H](C/C=C(\C)[C@@H](OC3C[C@H](OC)C(O[C@H]4C[C@H](OC)[C@@H](O)[C@H](C)O4)[C@H](C)O3)[C@@H](C)/C=C/C=C3\CO[C@@H]4[C@H](O)C(C)=C[C@@H](C(=O)O1)[C@]34O)O2 (some centres undefined) :: 0.814

Fill in normalized growth for each of the 6 compounds listed.
1. C/C1=C/CC(C)(C)/C=C/C/C(C)=C/CC1
2. Cc1cc(=O)oc2cc(O)c(O)cc12
3. Nc1ccc(C(=O)O)cc1
4. COc1ccccc1OCC(O)CO (centres undefined)
5. CC1(C)CC2C1CC[C@]1(CBr)CCC3C(CC(=O)O)C(=O)O[C@@]32C1 (some centres undefined)
6. CC12CCC3C(CC3(C)C)C(C)(CCC1=O)O2 (centres undefined)

// result
1. 1.01
2. 0.999
3. 1
4. 0.964
5. 0.995
6. 1.01

Entry under test: C/C1=C\CC(C)(C)/C=C/CC2(C)OC2CC1 (centres undefined) . Its normalized growth was 1.01

----------
experiment: chemical genetic growth profiling, strain panel (AID 1159580);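 further: tested at 20 µM; growth read once vehicle control cultures reached saturation at 30 °C; 1 = growth at the plate median or of vehicle wells; lower values mean less growth of the strain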
reported_conditions: S. cerevisiae deletion strains, growth OD, locus YLL001W, strain dnm1, hits give low values
Out of some 5,500 compounds screened, about 2,000 (36%) were called active. About 18% were inconclusive and are not listed. This is one part of the list.
Provide the recorded normalized growth for the entries that follow.
One number for each entry.

1. COC(=O)c1c(OC)cc2c(c1C)Oc1c(Cl)c(OC(C)=O)c(Cl)c(C)c1C(=O)O2 :: 0.992
2. COc1ccc2cc(CCC(C)=O)ccc2c1 :: 0.982

Fill in normalized growth for each of the 4 compounds listed.
1. CC12CCC(=O)C=C1CCC1C2[C@@H](O)CC2(C)C1CC[C@]2(O)C(=O)COP(=O)(O)O (some centres not stated)
2. CC(C)CCCC(C)[C@H]1CCC2C3C(=O)C=C4C[C@@H](O)CC[C@]4(C)C3CC[C@@]21C (some centres not stated)
3. Cc1cc(=O)[nH]c(=S)[nH]1
4. CC(=O)Oc1ccc(C(c2ccc(OC(C)=O)cc2)c2ccccn2)cc1

// result
1: 0.982; 2: 0.998; 3: 1.01; 4: 1.01
